Reference for the values: patent US20250092033A1

target: MET F1200I (Homo sapiens, UniProt P08581, F1200I); construct: purchased Signalchem M52-12GG/Y767-2; test: Kinase inhibition experiment (HTRF KinEASE-TK kit), mutant MET F1200I; format: biochemical; conditions: 10 concentrations, 3-fold dilution
Sequence (P08581 25-1390 F1200I): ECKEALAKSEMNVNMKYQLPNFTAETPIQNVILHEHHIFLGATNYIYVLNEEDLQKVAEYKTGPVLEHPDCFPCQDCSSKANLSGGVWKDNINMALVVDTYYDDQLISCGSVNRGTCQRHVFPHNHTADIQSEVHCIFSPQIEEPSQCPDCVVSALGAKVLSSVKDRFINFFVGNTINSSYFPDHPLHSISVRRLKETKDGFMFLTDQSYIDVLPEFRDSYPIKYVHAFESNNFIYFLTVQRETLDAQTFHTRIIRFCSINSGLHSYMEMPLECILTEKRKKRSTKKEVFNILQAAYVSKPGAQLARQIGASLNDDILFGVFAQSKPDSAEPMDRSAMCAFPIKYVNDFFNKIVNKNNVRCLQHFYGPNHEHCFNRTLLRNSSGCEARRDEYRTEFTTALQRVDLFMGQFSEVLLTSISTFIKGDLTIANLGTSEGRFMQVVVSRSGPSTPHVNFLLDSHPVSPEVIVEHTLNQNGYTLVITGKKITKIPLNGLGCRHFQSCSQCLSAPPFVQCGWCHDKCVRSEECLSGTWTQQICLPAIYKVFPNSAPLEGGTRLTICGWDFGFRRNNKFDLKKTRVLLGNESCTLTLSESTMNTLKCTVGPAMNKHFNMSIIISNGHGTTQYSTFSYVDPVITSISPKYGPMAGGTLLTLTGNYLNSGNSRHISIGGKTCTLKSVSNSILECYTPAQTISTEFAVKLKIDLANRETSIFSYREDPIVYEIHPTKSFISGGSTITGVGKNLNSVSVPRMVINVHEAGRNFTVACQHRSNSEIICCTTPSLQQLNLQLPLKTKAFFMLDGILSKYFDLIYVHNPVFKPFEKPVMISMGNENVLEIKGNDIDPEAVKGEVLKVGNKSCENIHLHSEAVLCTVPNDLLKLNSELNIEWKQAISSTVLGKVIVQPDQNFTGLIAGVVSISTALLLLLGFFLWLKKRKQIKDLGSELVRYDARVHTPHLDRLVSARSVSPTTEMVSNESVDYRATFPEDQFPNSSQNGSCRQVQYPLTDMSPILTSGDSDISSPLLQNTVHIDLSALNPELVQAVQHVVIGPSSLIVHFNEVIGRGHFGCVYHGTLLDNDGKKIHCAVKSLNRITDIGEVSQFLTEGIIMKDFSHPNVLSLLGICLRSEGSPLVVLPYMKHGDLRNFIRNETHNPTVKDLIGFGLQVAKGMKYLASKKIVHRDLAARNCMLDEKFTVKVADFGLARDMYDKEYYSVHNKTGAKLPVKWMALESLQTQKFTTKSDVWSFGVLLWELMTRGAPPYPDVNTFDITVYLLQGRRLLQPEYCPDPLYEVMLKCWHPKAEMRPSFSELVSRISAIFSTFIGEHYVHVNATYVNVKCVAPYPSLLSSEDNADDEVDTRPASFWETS
Entry class follows IC50: low interval (below 6 nM), middle interval (6 nM to below 20 nM), high interval (20 nM or more)

Task: Classify this compound: CC[C@@H](CO)Nc1n[nH]c2nccc(Oc3ccc(NC(=O)c4cccc(-c5ccc(F)cc5)[n+]4[O-])cc3F)c12
Output: high interval

Task: Classify this compound: CC(C)(O)CNc1n[nH]c2nccc(Oc3ccc(NC(=O)c4cccc(-c5ccc(F)cc5)[n+]4[O-])cc3F)c12
Output: high interval

Task: Classify this compound: CC[C@@H](CO)Nc1n[nH]c2nccc(Oc3ccc(NC(=O)c4ccc(Cl)c(-c5ccc(F)cc5)[n+]4[O-])cc3F)c12
Output: middle interval

Task: Classify this compound: C[C@H](CO)Nc1n[nH]c2nccc(Oc3ccc(NC(=O)c4ccc(C#N)c(-c5ccc(F)cc5)[n+]4[O-])cc3F)c12
Output: middle interval

Task: Classify this compound: C[C@H](CO)Nc1n[nH]c2nccc(Oc3ccc(NC(=O)c4cccc(-c5ccc(F)cc5)[n+]4[O-])cc3F)c12
Output: low interval

Task: Classify this compound: CSc1ccc(C(=O)Nc2ccc(Oc3ccnc4[nH]nc(N[C@H](C)CO)c34)c(F)c2)[n+]([O-])c1-c1ccc(F)cc1
Output: high interval

Task: Classify this compound: CC(O)C(CO)CNc1n[nH]c2nccc(Oc3ccc(NC(=O)c4cccc(-c5ccc(F)cc5)[n+]4[O-])cc3Cl)c12 (stereo not drawn)
Output: low interval

Task: Classify this compound: O=C(Nc1ccc(Oc2ccnc3[nH]nc(N4CCC(F)(CO)CC4)c23)c(F)c1)c1cccc(-c2ccc(F)cc2)[n+]1[O-]
Output: low interval

Task: Classify this compound: C[C@H](CO)Nc1n[nH]c2nccc(Oc3ccc(NC(=O)c4cccc(-c5ccc(F)cc5F)[n+]4[O-])cc3F)c12
Output: middle interval
